# EXPERIMENTAL SYSTEM: cKIT (Homo sapiens)
# Construct: The kinase domain of cKIT was assayed in 50 mM Hepes; purchased Upstate 14-559
# Sequence (P10721 589-937 limits assumed): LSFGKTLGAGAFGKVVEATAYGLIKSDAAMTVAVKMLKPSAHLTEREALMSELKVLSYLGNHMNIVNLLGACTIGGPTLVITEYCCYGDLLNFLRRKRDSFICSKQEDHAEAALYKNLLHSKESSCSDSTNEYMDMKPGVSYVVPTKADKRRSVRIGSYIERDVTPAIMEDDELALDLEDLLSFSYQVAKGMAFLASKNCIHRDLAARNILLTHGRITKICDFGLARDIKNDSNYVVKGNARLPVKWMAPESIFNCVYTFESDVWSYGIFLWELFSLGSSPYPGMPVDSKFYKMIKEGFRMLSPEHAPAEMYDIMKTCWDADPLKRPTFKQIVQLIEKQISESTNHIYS
# ASSAY PROCEDURE: cKIT kinase in vitro biochemical assay (alphascreen)
# REPORTED CONDITIONS: tested at about 1 μM; read-out: CKIT percent inhibition
PROPERTY: inhibition at 1 µM (%)

{"MOLECULE": "C[C@H](Nc1nc2ccc(Oc3cc(Cl)ncn3)cc2s1)C1CCCCC1 [Compound 35]", "ASSAY RESULT": 20}
{"MOLECULE": "Nc1ccc(Oc2ccc3nc(N[C@@H]4CCCC[C@H]4O)sc3c2)nn1 [Compound 90]", "ASSAY RESULT": 33}
{"MOLECULE": "Nc1cc(Oc2ccc3nc(N[C@@H]4CCCC[C@H]4O)sc3c2)ncn1 [Compound 9]", "ASSAY RESULT": 13}
{"MOLECULE": "C[C@H](Nc1nc2ccc(Oc3ccc(C#N)nc3)cc2s1)C1CCCCC1 [Compound 87]", "ASSAY RESULT": 16}
{"MOLECULE": "O[C@@H]1CCCC[C@H]1Nc1nc2ccc(Oc3cncc(-c4cncs4)c3)cc2s1 [Compound 70]", "ASSAY RESULT": 64}
{"MOLECULE": "Nc1ccc(-c2cncc(Oc3ccc4nc(N[C@@H]5CCCC[C@H]5O)sc4c3)c2)cn1 [Compound 47]", "ASSAY RESULT": 63}
{"MOLECULE": "O[C@@H]1CCCC[C@H]1Nc1nc2ccc(Oc3cncc(-c4cnccn4)c3)cc2s1 [Compound 84]", "ASSAY RESULT": 99}
{"MOLECULE": "O[C@@H]1CCCC[C@H]1Nc1nc2ccc(Oc3cncc(-c4ncco4)c3)cc2s1 [Compound 83]", "ASSAY RESULT": 86}
